# Method Notes: acute toxicity, single oral administration to mice
# Test Settings: mouse, in vivo
# Excerpt: The results obtained with representative members of the class of compounds defined by formula I in the experiments described previously are compiled in the following Table. Moreover, the Table contains data concerning the acute toxicity of some of these compounds (LD50 in mg/kg in the case of single oral administration to mice).
Readout Name: LD50

O=C1c2c(Cl)cccc2-n2cnc(-c3cccc(C(F)(F)F)c3)c2[C@@H]2CCCN12 [B] :: 2500 to 5000 mg/kg

Proceed to the following item.
Value of measured LD50 for the entry O=C1c2c(Cl)cccc2-n2cnc(-c3cccc(Cl)c3)c2[C@@H]2CCCN12 [A] : 2500 to 5000 mg/kg

---

Examples of compounds with documented pIC50 follow.
# Target Or Test System: central benzodiazepine receptors
# Method Notes: inhibition of the binding of tritiated diazepam at the specific benzodiazepine receptors in the cerebral cortex
Kindly note that pIC50 refers to -log10 of the concentration in mol/L and answer with the value alone.

O=C1c2c(Cl)cccc2-n2cnc(-c3cccc(Cl)c3)c2[C@@H]2CCCN12 :: 8.38

In plain terms, `O=C1c2c(Cl)cccc2-n2cnc(-c3cccc(C(F)(F)F)c3)c2[C@@H]2CCCN12` has a documented pIC50 of 7.40

Provenance of the data: patent US4616010A
